Just for reference, ChEMBL document CHEMBL4800724 is where these values come from.

Biological target: Sigma non-opioid intracellular receptor 1 (Homo sapiens, UniProt Q99720)
Sequence (Q99720 whole entry): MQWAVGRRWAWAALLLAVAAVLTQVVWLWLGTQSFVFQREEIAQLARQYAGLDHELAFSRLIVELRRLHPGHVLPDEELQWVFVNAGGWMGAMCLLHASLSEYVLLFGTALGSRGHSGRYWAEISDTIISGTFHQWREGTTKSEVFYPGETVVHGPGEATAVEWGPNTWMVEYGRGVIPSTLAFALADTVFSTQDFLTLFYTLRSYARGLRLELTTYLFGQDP
Assay: GPCRScan assay: inhibition of Sigma 1
Parameters: radioligand conc. used [nm] 4.0 – 5.0, parental cells HEKT
Conditions: read-out: Ki
assayReadout: Ki
Lab note: write values as number then unit, every time.

Item N#CN1CC[C@H](C(=O)Nc2nc3c(s2)CN(C(=O)CN=[N+]=[N-])CC3)C1 [8RK64] has what recorded Ki?
3.43 µM

---

Target chain: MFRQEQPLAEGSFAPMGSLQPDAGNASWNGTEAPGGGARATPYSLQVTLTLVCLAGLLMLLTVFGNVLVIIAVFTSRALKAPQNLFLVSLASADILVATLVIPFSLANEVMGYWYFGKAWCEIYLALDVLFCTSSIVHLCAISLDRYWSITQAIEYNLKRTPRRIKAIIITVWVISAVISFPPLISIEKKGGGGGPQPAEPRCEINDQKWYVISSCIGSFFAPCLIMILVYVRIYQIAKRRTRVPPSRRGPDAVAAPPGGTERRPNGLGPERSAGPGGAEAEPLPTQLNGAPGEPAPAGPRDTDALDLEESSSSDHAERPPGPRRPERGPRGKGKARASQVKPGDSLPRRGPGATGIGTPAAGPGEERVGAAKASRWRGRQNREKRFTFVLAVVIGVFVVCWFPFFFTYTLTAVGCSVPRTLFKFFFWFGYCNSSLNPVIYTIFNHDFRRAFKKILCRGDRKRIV
assayReadout: Ki

Item N#CN1CC[C@@H](C(=O)Nc2nc3c(s2)CN(C(=O)CN=[N+]=[N-])CC3)C1 [JYQ88] has what recorded Ki?
> 10 µM
